System: 521955-158-R2-J5-PDC complex spheroids, viability;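 note: spheroids also contain HUVEC endothelial cells and mesenchymal stem cells as stroma; compound exposure lasted seven days before the viability read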
Experiment: Anticancer human tumor 521955-158-R2-J5-PDC patient-derived pancreatic carcinoma cell line growth inhibition [RAS]; active = viability on the fitted dose curve at most 10% of control; inactive = the rest
Conditions: second compound 0.00949 µM; first compound 0.0949 µM
Just give me one of these, please: Yes (active), No (inactive)

[ask] Tell me the assay call for CCc1c2c(nc3ccc(O)cc13)-c1cc3c(c(=O)n1C2)COC(=O)[C@]3(O)CC + CCn1c(-c2cc(N3CCN(C)CC3)cnc2C(C)OC)c2c3cc(ccc31)-c1csc(n1)CC(NC(=O)C1CC1C)C(=O)N1CCCC(N1)C(=O)OCC(C)(C)C2 please.
[reply] Yes

[ask] Try the compound CC1(C)CCC(Nc2ncc(C(F)(F)F)c(-c3c[nH]c4c(P(C)(C)=O)c(C#N)ccc34)n2)CN1 (centres undefined) + CCn1c(-c2cc(N3CCN(C)CC3)cnc2C(C)OC)c2c3cc(ccc31)-c1csc(n1)CC(NC(=O)C1CC1C)C(=O)N1CCCC(N1)C(=O)OCC(C)(C)C2
[reply] No

[ask] Try the compound CCc1c2c(nc3ccc(O)cc13)-c1cc3c(c(=O)n1C2)COC(=O)[C@]3(O)CC + CCn1c(-c2cccnc2C(C)OC)c2c3cc(ccc31)N1CCOC(CC(NC(=O)C(C(C)C)N(C)C(=O)C3(F)CCN(C(=O)C#CC(C)(C)N(C)C)CC3)C(=O)N3CCCC(N3)C(=O)OCC(C)(C)C2)C1
[reply] Yes

[ask] Try the compound CC1(C)CCC(Nc2ncc(C(F)(F)F)c(-c3c[nH]c4c(P(C)(C)=O)c(C#N)ccc34)n2)CN1 (centres undefined) + CCn1c(-c2cccnc2C(C)OC)c2c3cc(ccc31)N1CCOC(CC(NC(=O)C(C(C)C)N(C)C(=O)C3(F)CCN(C(=O)C#CC(C)(C)N(C)C)CC3)C(=O)N3CCCC(N3)C(=O)OCC(C)(C)C2)C1
[reply] No

Data provenance is PubChem BioAssay AID2060900.
